Origin of the recorded values: ChEMBL document CHEMBL3885861

# Organism: Rattus norvegicus
# MEASUREMENT_PROTOCOL: Open TG-GATES - Regimen: Daily Repeat
# Format: toxicity, organism-based, Sprague-Dawley
# Set-up: regimen Daily Repeat, gender Male, age 6 weeks
# REPORTED_CONDITIONS: in vivo, po, 0 mg/kg, […], tissue Plasma, route gavage, dose level Control, time 28 day
Could you please mark Criterion met for values of K below 4 meq/L and Criterion not met for values at or above it?

[
  {
    "COMPOUND": "O=C(O)c1cn(C2CC2)c2cc(N3CCNCC3)c(F)cc2c1=O",
    "GROUP_LABEL": "Criterion not met"
  },
  {
    "COMPOUND": "O=C(O)c1cc(/N=N/c2ccc(S(=O)(=O)Nc3ccccn3)cc2)ccc1O",
    "GROUP_LABEL": "Criterion met"
  },
  {
    "COMPOUND": "CC(=O)Oc1ccccc1C(=O)O",
    "GROUP_LABEL": "Criterion met"
  },
  {
    "COMPOUND": "CSc1ccc2c(c1)N(CCC1CCCCN1C)c1ccccc1S2 (centres undefined)",
    "GROUP_LABEL": "Criterion not met"
  },
  {
    "COMPOUND": "NC(=O)N1c2ccccc2C=Cc2ccccc21 [CARBAMAZEPINE]",
    "GROUP_LABEL": "Criterion met"
  },
  {
    "COMPOUND": "CN(C)CCC=C1c2ccccc2CCc2ccccc21",
    "GROUP_LABEL": "Criterion met"
  }
]

----------
# Species on record: Rattus norvegicus
# MEASUREMENT_PROTOCOL: Open TG-GATES - Regimen: Single
# Assay type: toxicity, organism-based, Sprague-Dawley
# Set-up: regimen Single, gender Male, age 6 weeks
# REPORTED_CONDITIONS: in vivo, po, 0 mg/kg, 9 h, tissue Plasma, route gavage, dose level Control
The following compounds are shown together with reported TG values.
MEASURED_PROPERTY: TG

[
  {
    "COMPOUND": "CC(=O)Oc1ccccc1C(=O)O [ASPIRIN]",
    "MEASURED_PROPERTY": "TG",
    "RESULT": "46.2 mg/dL"
  },
  {
    "COMPOUND": "O=C(O)c1cn(C2CC2)c2cc(N3CCNCC3)c(F)cc2c1=O [CIPROFLOXACIN]",
    "MEASURED_PROPERTY": "TG",
    "RESULT": "29 mg/dL"
  },
  {
    "COMPOUND": "NC(=O)N1c2ccccc2C=Cc2ccccc21 [CARBAMAZEPINE]",
    "MEASURED_PROPERTY": "TG",
    "RESULT": "47 mg/dL"
  },
  {
    "COMPOUND": "O=C(O)c1cc(/N=N/c2ccc(S(=O)(=O)Nc3ccccn3)cc2)ccc1O [SULFASALAZINE]",
    "MEASURED_PROPERTY": "TG",
    "RESULT": "76.4 mg/dL"
  },
  {
    "COMPOUND": "C[C@H](CS)C(=O)N1CCC[C@H]1C(=O)O [CAPTOPRIL]",
    "MEASURED_PROPERTY": "TG",
    "RESULT": "64.8 mg/dL"
  },
  {
    "COMPOUND": "CSc1ccc2c(c1)N(CCC1CCCCN1C)c1ccccc1S2 (stereo unspecified) [THIORIDAZINE]",
    "MEASURED_PROPERTY": "TG",
    "RESULT": "35.8 mg/dL"
  },
  {
    "COMPOUND": "CCc1cc(C(N)=S)ccn1 [ETHIONAMIDE]",
    "MEASURED_PROPERTY": "TG",
    "RESULT": "47.8 mg/dL"
  },
  {
    "COMPOUND": "NC(=O)N/N=C/c1ccc([N+](=O)[O-])o1 [NITROFURAZONE]",
    "MEASURED_PROPERTY": "TG",
    "RESULT": "25 mg/dL"
  },
  {
    "COMPOUND": "CN(C)CCC=C1c2ccccc2CCc2ccccc21 [AMITRIPTYLINE]",
    "MEASURED_PROPERTY": "TG",
    "RESULT": "44 mg/dL"
  },
  {
    "COMPOUND": "COc1ccc(Cc2nccc3cc(OC)c(OC)cc23)cc1OC [PAPAVERINE]",
    "MEASURED_PROPERTY": "TG",
    "RESULT": "75 mg/dL"
  },
  {
    "COMPOUND": "Cn1c(=O)c2[nH]cnc2n(C)c1=O.O [THEOPHYLLINE]",
    "MEASURED_PROPERTY": "TG",
    "RESULT": "52.8 mg/dL"
  }
]
